B1: Gamma-crystallin C, residues 4 to 79; numbered along this chain, P07315 (parent)
chain: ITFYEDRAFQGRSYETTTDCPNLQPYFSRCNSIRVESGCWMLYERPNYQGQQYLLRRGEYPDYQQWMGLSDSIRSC

- Variants of: B1
- TEST SUMMARY: abundance fitness (aPCA) (normalised: wild type 0, dead -1); higher = more abundant; growth selection in yeast, the domain comes from the species named
- DETAILS: Homo sapiens
Classify on abundance fitness using Low = under -0.1, Medium = from -0.1 up to -0.03, High = -0.03 and over

Q: Form: Item = Q64I ; Class = ?
Ans: Medium

Q: Form: Item = R57L ; Class = ?
Ans: Medium

Q: Form: Item = S75V ; Class = ?
Ans: Low

Q: Form: Item = Y60F ; Class = ?
Ans: Low

Q: Form: Item = C20E ; Class = ?
Ans: Medium

Q: Form: Item = L54E ; Class = ?
Ans: High

Q: Form: Item = Y43F ; Class = ?
Ans: Low

Q: Form: Item = S13C ; Class = ?
Ans: Medium

Q: Form: Item = W40E ; Class = ?
Ans: Low

Q: Form: Item = F3Q ; Class = ?
Ans: Low

Q: Form: Item = D19L ; Class = ?
Ans: High

Q: Form: Item = L42Y ; Class = ?
Ans: Low

Q: Form: Item = R45K ; Class = ?
Ans: High

Q: Form: Item = E36F ; Class = ?
Ans: Low

Q: Form: Item = Q24E ; Class = ?
Ans: High

Q: Form: Item = L69N ; Class = ?
Ans: Medium

Q: Form: Item = C39L ; Class = ?
Ans: Medium

Q: Form: Item = Q24I ; Class = ?
Ans: Medium

Q: Form: Item = I73F ; Class = ?
Ans: Medium

Q: Form: Item = R12Q ; Class = ?
Ans: High

Q: Form: Item = F27M ; Class = ?
Ans: High

Q: Form: Item = P61V ; Class = ?
Ans: Medium

Q: Form: Item = Q10S ; Class = ?
Ans: Medium

Q: Form: Item = R45I ; Class = ?
Ans: Low

Q: Form: Item = C20N ; Class = ?
Ans: High

Q: Form: Item = D62S ; Class = ?
Ans: Medium

Q: Form: Item = C39V ; Class = ?
Ans: High

Q: Form: Item = D6M ; Class = ?
Ans: High

Q: Form: Item = I73P ; Class = ?
Ans: High

Q: Form: Item = E15I ; Class = ?
Ans: High

Q: Form: Item = N47V ; Class = ?
Ans: Low

Q: Form: Item = F27P ; Class = ?
Ans: Low

Q: Form: Item = P25A ; Class = ?
Ans: High

Q: Form: Item = P61Q ; Class = ?
Ans: Medium

Q: Form: Item = Y48T ; Class = ?
Ans: Low

Q: Form: Item = D62L ; Class = ?
Ans: Medium

Q: Form: Item = Y53T ; Class = ?
Ans: Low

Q: Form: Item = D71P ; Class = ?
Ans: Low

Q: Form: Item = Q10C ; Class = ?
Ans: High

Q: Form: Item = L69G ; Class = ?
Ans: High

Q: Form: Item = S32F ; Class = ?
Ans: Low

Q: Form: Item = V35C ; Class = ?
Ans: Low

Q: Form: Item = Y26V ; Class = ?
Ans: High

Q: Form: Item = Y43M ; Class = ?
Ans: Low

Q: Form: Item = Y63P ; Class = ?
Ans: High

Q: Form: Item = L42Q ; Class = ?
Ans: Low

Q: Form: Item = R34M ; Class = ?
Ans: Low

Q: Form: Item = Y14C ; Class = ?
Ans: Low

Q: Form: Item = P25E ; Class = ?
Ans: High

Q: Form: Item = T2F ; Class = ?
Ans: High

Q: Form: Item = Q10L ; Class = ?
Ans: Low

Q: Form: Item = Y43W ; Class = ?
Ans: Low

Q: Form: Item = T16C ; Class = ?
Ans: High

Q: Form: Item = I33S ; Class = ?
Ans: Low

Q: Form: Item = S70G ; Class = ?
Ans: High

Q: Form: Item = Y26K ; Class = ?
Ans: Medium

Q: Form: Item = F3T ; Class = ?
Ans: Low

Q: Form: Item = L69V ; Class = ?
Ans: High

Q: Form: Item = R45D ; Class = ?
Ans: Low

Q: Form: Item = G11W ; Class = ?
Ans: Low

Q: Form: Item = C30T ; Class = ?
Ans: Low

Q: Form: Item = G58S ; Class = ?
Ans: Medium

Q: Form: Item = G38Y ; Class = ?
Ans: Low

Q: Form: Item = C20A ; Class = ?
Ans: High

Q: Form: Item = R7K ; Class = ?
Ans: Low

Q: Form: Item = R74I ; Class = ?
Ans: High

Q: Form: Item = G58L ; Class = ?
Ans: Low
